The reader will find reported TGI values listed item by item below.
# Tested on: K-562 leukemia
# test description: NCI tumour cell line growth inhibition, 48 h

N#CC1C(=O)N(c2ccccc2)NC12OC(=O)c1ccncc12 (configuration not stated)	> 20 µM

Here is the next item to consider.
query: For the compound CCC(C)(C)C1CCC2c3c([nH]c4ccccc34)C3C(=O)N(c4ccc(OC)cc4)C(=O)C3C2C1 (configuration not stated) , give its measured TGI value.
result: > 100 µM

====

The reader will find reported GI50 values listed item by item below.
# Test system: EKVX NSCLC
# test description: NCI tumour cell line growth inhibition, 48 h

Sample records with GI50:
O=c1cc(-c2ccccc2)oc2cc(OC/C(=N/O)c3ccccc3)ccc12	24.8 µM
O=C1CCC(N2C(=O)c3ccccc3C2=O)C(=O)N1CO (stereo not given)	> 100 µM
CCC[CH2][Sn]1([CH2]CCC)[O]C(=O)CN=Cc2c(ccc3ccccc23)[O]1	0.552 µM
CC/C=C\C[C@@H](O)C/C=C1/C(=O)C=C[C@H]1C/C=C\CCCC(=O)OC	9.14 µM

Here is the next item to consider.
query: For the compound COC(=O)Nc1nc2ccc(Oc3ccc(NC(=O)Nc4cc(C(F)(F)F)ccc4F)cc3)cc2s1 , give its measured GI50 value.
result: > 14.7 µM

====

# Test system: LOX IMVI melanoma
# test description: NCI tumour cell line growth inhibition, 48 h
property label: GI50

COc1ccc(-c2onc(N)c2-c2cc(OC)c3c(c2)OCO3)cc1	3.68 µM
CC/C=C\C[C@H](F)C/C=C1/C(=O)C=C[C@@H]1C/C=C\CCCC(=O)O	3.77 µM

Here is the next item to consider.
query: Give GI50 only, for O=c1cc(-c2ccccc2)oc2cc(OC/C(=N/O)c3ccccc3)ccc12 , using LOX IMVI melanoma data.
result: 30.5 µM

====

# System: BT-549 breast
# test description: NCI tumour cell line growth inhibition, 48 h
The reader will find reported TGI values listed item by item below.

Cn1c2ccccc2c2ccc3c(c21)C(=O)c1ccccc1C3=O	50.9 µM

Here is the next item to consider.
query: For the molecule Cc1cc(Cl)cc2c1NC(=O)C2(O)CC(=O)c1ccco1 (stereo not drawn) , give its measured TGI value.
result: > 100 µM

====

The reader will find reported TGI values listed item by item below.
# Test system: MCF7 breast
# test description: NCI tumour cell line growth inhibition, 48 h

query: For the molecule O=C(CC1C(=O)NN(c2ccc(Br)cc2)C1=O)c1cc(O)ccc1O (stereo not drawn) , give its measured TGI value.
result: > 50 µM

query: For the molecule COc1cc(/C=N\N(C)C)cc(/C=N/N(C)C)c1O , give its measured TGI value.
result: > 100 µM

query: For the molecule O=C1c2[nH]c3ccc(Br)cc3c2CCN1Cc1ccc(Cl)cc1 , give its measured TGI value.
result: 35.7 µM

query: For the molecule CC(=N)OC1CC2CCC1(C)C2(C)C (stereo not drawn) , give its measured TGI value.
result: > 100 µM

query: For the molecule c1nc(N2CC2)c2cnn(C3CCCCO3)c2n1 (stereo not drawn) , give its measured TGI value.
result: > 100 µM

query: For the molecule O=C1c2cccc([N+](=O)[O-])c2C(=O)N1c1ncn[nH]1 , give its measured TGI value.
result: > 100 µM

query: For the molecule COC1(C)CP(=O)(OC(C)C)CC(C)=C1Cl (stereo not drawn) , give its measured TGI value.
result: 18.6 µM

query: For the molecule Cc1ccc(C(=O)NC(C)C)cc1-c1ccc(C(=O)NCC2CC2)cc1 , give its measured TGI value.
result: > 25 µM

query: For the molecule CO/C(N)=C(\C#N)N=Cc1ccco1 , give its measured TGI value.
result: > 100 µM

query: For the molecule COC(=O)C1=C(O)C(C(=O)OC)[C@]2(O)[C@H](C(=O)OC)[C@H]1C[C@@H](c1ccc(Cl)cc1)[C@H]2C(=O)OC (stereo partly drawn) , give its measured TGI value.
result: 24.1 µM

====

# Tested on: SK-MEL-2 melanoma
# test description: NCI tumour cell line growth inhibition, 48 h
property label: TGI (µM)
Quick reminder: number only, in µM, skip the unit.

Sample records with TGI:
O=C(O)/C=C(\c1nc2ccc([N+](=O)[O-])cc2[nH]1)c1cc(Cl)ccc1O	7.59
C=C(C[C@](O)(C(=O)/C=C/c1ccc(Cl)cc1)C(=O)OC)c1ccccc1	27.1
CCC/C=C/c1cc2c(cc1O)CC[C@@H]1[C@@H]2CC[C@]2(C)[C@@H](O)CC[C@@H]12	32.1
O=C1Nc2ccccc2C1(c1ccc(O)cc1)c1ccc(O)cc1	50.6

query: For the compound COc1ccc2nc3c(C(=O)NCCN(C)C)cccc3nc2c1 , give its measured TGI value.
result: 21.8

query: For the compound COc1cc(/C=N\N(C)C)cc(/C=N/N(C)C)c1O , give its measured TGI value.
result: 28.1

query: For the compound Cc1ccc(S(=O)(=O)c2ccsc2NC(=O)C(F)(F)F)cc1 , give its measured TGI value.
result: 94.7

====

The reader will find reported TGI values listed item by item below.
# Tested on: SK-MEL-28 melanoma
# test description: NCI tumour cell line growth inhibition, 48 h

Sample records with TGI:
O=C1c2ccccc2C(=O)c2c1cc(S(=O)(=O)O)c(O)c2O	> 100 µM
NC1=NC(c2ccccc2)CC(c2cc(Cl)ccc2O)=N1 (configuration not stated)	33.5 µM

Here is the next item to consider.
query: For the molecule CNC(=O)C1CCc2nnc(-c3ccccc3)n21 (configuration not stated) , give its measured TGI value.
result: > 100 µM

====

# System: BT-549 breast
# test description: NCI tumour cell line growth inhibition, 48 h
property label: TGI

Nc1nc(Cl)c(CO)c(NCC2(CO)CC(CCc3ccccc3)C2)n1 (stereo not given)	71.1 µM

query: For the compound C[N+](C)(C)CCCSc1nc2ccccc2[nH]1 , give its measured TGI value.
result: > 100 µM

query: For the compound Cc1cc2cc3c(cc2c(-c2ccc([N+](=O)[O-])cc2)n1)OCO3 , give its measured TGI value.
result: 73.7 µM

query: For the compound O=C(Cn1c2c(c3ccccc31)CCCC2)N1CCCC1 , give its measured TGI value.
result: > 100 µM

query: For the compound O=C(O)CCNC1CCCCC1 , give its measured TGI value.
result: > 100 µM

query: For the compound CC(C)NC(NC(C)C)=C(S(=O)(=O)C(F)(F)C(F)(F)C(F)(F)C(F)(F)F)S(=O)(=O)C(F)(F)C(F)(F)C(F)(F)C(F)(F)F , give its measured TGI value.
result: > 100 µM

query: For the compound O=c1[nH]nc(-c2ccccc2)n1/N=C/c1ccc([N+](=O)[O-])cc1 , give its measured TGI value.
result: > 100 µM

query: For the compound Cc1ccc2c(c1)Sc1c(ccc3ccccc13)N2 , give its measured TGI value.
result: > 100 µM

query: For the compound O=C1N[C@H]2c3c(Cl)sc(Cl)c3[C@@H](O)[C@H]2O1 , give its measured TGI value.
result: > 100 µM

query: For the compound CC(=O)Oc1cc(Cl)c(C)c2c1[C@H]1CC[C@]3(C)[C@@H](OC(C)=O)CC[C@H]3[C@@H]1CC2 , give its measured TGI value.
result: > 100 µM

====

# Test system: HCT-15 colon
# test description: NCI tumour cell line growth inhibition, 48 h
property label: TGI

Clc1ccccc1-c1nc2ccc(C34CC5CC(CC(C5)C3)C4)cc2[nH]1	> 100 µM
O=c1c2ccccc2[nH]c2c(Cl)cc(Cl)c(NC3CCCCC3)c12	> 100 µM

query: For the molecule COC(=O)c1cc(C)ccc1C1CN=NC12Cc1ccc(C)cc1C2=O (stereo not given) , give its measured TGI value.
result: > 100 µM

query: For the molecule Cc1cc(C)c2c(O)c(S(=O)(=O)c3ccc(Cl)cc3)c(=O)oc2c1 , give its measured TGI value.
result: > 100 µM

query: For the molecule O=C(N/N=C/C=C/c1ccccc1)[C@H](O)[C@@H](O)C(=O)N/N=C/C=C/c1ccccc1 , give its measured TGI value.
result: > 100 µM

query: For the molecule O=C(CC1(O)C(=O)Nc2c(Cl)ccc(Cl)c21)c1ccc(F)cc1 (stereo not given) , give its measured TGI value.
result: > 100 µM

query: For the molecule CCOC(=S)SSSC(=S)OCC , give its measured TGI value.
result: 46.8 µM

====

The reader will find reported GI50 values listed item by item below.
# Test system: COLO 205 colon
# test description: NCI tumour cell line growth inhibition, 48 h

Sample records with GI50:
N#CC(C#N)=C1Nc2ccccc2S1	29500 nM
CCCn1c(=S)sc2c1nc(C)n1c(Nc3ccccc3)nnc21	17000 nM
Cc1ccc(-c2nc3nc(-c4ccccc4)nc(N4CCCNCC4)c3o2)cc1	1960 nM

query: For the compound O=C1C(Cl)=C(NCCN2CCOCC2)C(=O)c2ncccc21 , give its measured GI50 value.
result: 1610 nM

query: For the compound Cc1cc(-c2cnn3c(NCC4CC(C)(O)C4)cc(Oc4cccnc4)nc23)ccc1C(=O)NC1CC1 (stereo unspecified) , give its measured GI50 value.
result: 1060 nM

query: For the compound O=C(O)/C=C(\c1nc2ccc([N+](=O)[O-])cc2[nH]1)c1cc(Cl)ccc1O , give its measured GI50 value.
result: 2870 nM
